The measured values listed here are drawn from patent US20190322632A1.

measured.quantity: melting point

Sure, the documented melting point for O=C(Nc1ccc(S(F)(F)(F)(F)F)cc1)Nc1ccc2nnsc2c1 [compound I-25] is 274 to 275 °C

Sure, the documented melting point for O=C(Nc1ccc(Cl)c(S(F)(F)(F)(F)F)c1)Nc1ccc2nnsc2c1 [compound I-29] is 213 to 214 °C

Sure, the documented melting point for O=C(Nc1ccc(Cl)c(S(F)(F)(F)(F)F)c1)Nc1ccc(Cl)c(S(F)(F)(F)(F)F)c1 [compound I-38] is 237 to 238 °C

Sure, the documented melting point for O=C(Nc1cccc(S(F)(F)(F)(F)F)c1)Nc1ccc2nnsc2c1 [compound I-26] is 229 to 230 °C

Sure, the documented melting point for O=C(Nc1ccc2nnsc2c1)Nc1cccc(S(F)(F)(F)(F)F)c1Cl [compound I-28] is 225 °C

Sure, the documented melting point for O=C(Nc1ccc(S(F)(F)(F)(F)F)cc1)Nc1cccc(S(F)(F)(F)(F)F)c1 [compound I-37] is 216 to 217 °C

Sure, the documented melting point for O=C(Nc1ccc(Cl)c(C(F)(F)F)c1)Nc1cc(S(F)(F)(F)(F)F)ccc1Cl [compound I-33] is 156 to 157 °C

Sure, the documented melting point for O=C(Nc1ccc2nnsc2c1)Nc1cc(S(F)(F)(F)(F)F)ccc1Cl [compound I-27] is 227 °C

Sure, the documented melting point for O=C(Nc1cc(S(F)(F)(F)(F)F)ccc1Cl)Nc1cc(S(F)(F)(F)(F)F)ccc1Cl [compound I-32] is 227 to 228 °C
